The measurements presented in this section are drawn from ChEMBL document CHEMBL1148701.

target: Integrin alpha-V/beta-3 (Homo sapiens, UniProt P05106+P06756); test: Inhibition of integrin alpha-V-beta-3 receptor by ELISA; type: protein-complex assay
Sequence (P06756 31-889 limits assumed, one chain of several): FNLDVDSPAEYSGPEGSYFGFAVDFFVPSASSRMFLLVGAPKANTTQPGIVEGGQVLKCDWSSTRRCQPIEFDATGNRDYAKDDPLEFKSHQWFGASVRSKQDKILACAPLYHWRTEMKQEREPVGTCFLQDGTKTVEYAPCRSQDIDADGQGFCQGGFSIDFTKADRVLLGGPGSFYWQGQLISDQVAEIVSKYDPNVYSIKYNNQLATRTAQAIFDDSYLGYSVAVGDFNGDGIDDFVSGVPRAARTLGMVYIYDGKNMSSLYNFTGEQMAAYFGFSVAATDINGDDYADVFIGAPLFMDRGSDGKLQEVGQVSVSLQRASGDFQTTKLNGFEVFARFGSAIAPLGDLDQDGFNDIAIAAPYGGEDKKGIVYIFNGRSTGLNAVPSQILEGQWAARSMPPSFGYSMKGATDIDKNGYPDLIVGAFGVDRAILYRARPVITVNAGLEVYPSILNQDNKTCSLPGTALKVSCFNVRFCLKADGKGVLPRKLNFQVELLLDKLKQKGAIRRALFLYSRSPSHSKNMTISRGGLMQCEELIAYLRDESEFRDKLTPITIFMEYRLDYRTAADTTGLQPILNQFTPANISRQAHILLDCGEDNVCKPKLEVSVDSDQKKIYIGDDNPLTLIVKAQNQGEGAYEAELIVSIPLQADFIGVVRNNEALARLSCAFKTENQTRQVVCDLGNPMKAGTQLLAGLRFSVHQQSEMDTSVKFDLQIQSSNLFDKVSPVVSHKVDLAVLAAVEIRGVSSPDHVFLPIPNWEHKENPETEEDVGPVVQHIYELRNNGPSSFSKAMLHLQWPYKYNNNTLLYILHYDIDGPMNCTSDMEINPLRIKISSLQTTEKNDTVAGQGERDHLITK
Sequence (P06756 891-1048 limits assumed, one chain of several): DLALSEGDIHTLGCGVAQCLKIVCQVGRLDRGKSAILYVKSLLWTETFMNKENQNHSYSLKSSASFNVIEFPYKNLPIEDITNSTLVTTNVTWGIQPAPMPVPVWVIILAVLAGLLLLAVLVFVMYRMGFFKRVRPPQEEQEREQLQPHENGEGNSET
Parameter: IC50 (nM)
I only need the number, in nM, no unit after it.

// solved cases for IC50 follow
[[record]]
input_smiles = "COc1ccnc(NC[C@@H]2C[C@@H](OCC(=O)NC[C@H](NS(=O)(=O)c3c(C)cc(C)cc3C)C(=O)O)CN2C(=O)OCc2ccccc2)c1"
target_entity = "Integrin alpha-V/beta-3 (Homo sapiens, UniProt P05106+P06756)"
meas_value = 2.4

[[record]]
input_smiles = "CC(C)(C)CC(=O)N1C[C@H](OCC(=O)NC[C@H](NC(=O)C2(C)CCCCC2)C(=O)O)C[C@H]1CNc1ccccn1"
target_entity = "Integrin alpha-V/beta-3 (Homo sapiens, UniProt P05106+P06756)"
meas_value = 1600

[[record]]
input_smiles = "Cc1cc(C)c(S(=O)(=O)N[C@@H](CNC(=O)CO[C@@H]2C[C@@H](CNc3ccccn3)N(C(=O)OCc3ccccc3)C2)C(=O)O)c(C)c1"
target_entity = "Integrin alpha-V/beta-3 (Homo sapiens, UniProt P05106+P06756)"
meas_value = 16

[[record]]
input_smiles = "Cc1cc(C)c(C(=O)N[C@@H](CNC(=O)CO[C@@H]2C[C@@H](CNc3ccccn3)N(C(=O)OCc3ccccc3)C2)C(=O)O)c(C)c1"
target_entity = "Integrin alpha-V/beta-3 (Homo sapiens, UniProt P05106+P06756)"
meas_value = 30000

[[record]]
input_smiles = "O=C(CO[C@@H]1C[C@@H](CNc2ccccn2)N(C(=O)OCc2ccccc2)C1)NC[C@H](NS(=O)(=O)c1ccccc1)C(=O)O"
target_entity = "Integrin alpha-V/beta-3 (Homo sapiens, UniProt P05106+P06756)"
meas_value = 6.3

[[record]]
input_smiles = "COc1ccnc(NC[C@@H]2C[C@@H](OCC(=O)NC[C@H](NC(=O)c3c(C)cc(C)cc3C)C(=O)O)CN2C(=O)OCc2ccccc2)c1"
target_entity = "Integrin alpha-V/beta-3 (Homo sapiens, UniProt P05106+P06756)"
meas_value = 3400


Problem: Return reported IC50; argument: Cc1cc(C)c(C(=O)N[C@@H](CNC(=O)CO[C@@H]2C[C@@H](CNc3ccccn3)N(C(=O)CC(C)(C)C)C2)C(=O)O)c(C)c1
Result: 16000

Problem: Return reported IC50; argument: CC1(C(=O)N[C@@H](CNC(=O)CO[C@@H]2C[C@@H](CNc3ccccn3)N(C(=O)OCc3ccccc3)C2)C(=O)O)CCCCC1
Result: 880

Problem: Return reported IC50; argument: COc1ccnc(NC[C@@H]2C[C@@H](OCC(=O)NC[C@H](NC(=O)c3c(C)cc(C)cc3C)C(=O)O)CN2C(=O)CC(C)(C)C)c1
Result: 3300

Problem: Return reported IC50; argument: O=C(CO[C@@H]1C[C@@H](CNc2ccccn2)N(C(=O)OCc2ccccc2)C1)NC[C@H](NC(=O)c1ccccc1)C(=O)O
Result: 140

---

assay: Inhibition of integrin alpha-3b-beta-1 receptor by ELISA; design: species or system Homo sapiens
Collected pIC50 values appear next to each entry.
pIC50 is defined as minus the log10 of a concentration measured in mol/L.

// solved cases for pIC50 follow
[[record]]
input_smiles = "COc1ccnc(NC[C@@H]2C[C@@H](OCC(=O)NC[C@H](NC(=O)C3(C)CCCCC3)C(=O)O)CN2C(=O)OCc2ccccc2)c1"
meas_value = 4.52

[[record]]
input_smiles = "Cc1cc(C)c(C(=O)N[C@@H](CNC(=O)CO[C@@H]2C[C@@H](CNc3ccccn3)N(C(=O)OCc3ccccc3)C2)C(=O)O)c(C)c1"
meas_value = 4.44

[[record]]
input_smiles = "COc1ccnc(NC[C@@H]2C[C@@H](OCC(=O)NC[C@H](NC(=O)c3c(C)cc(C)cc3C)C(=O)O)CN2C(=O)OCc2ccccc2)c1"
meas_value = 4.70

[[record]]
input_smiles = "COc1ccnc(NC[C@@H]2C[C@@H](OCC(=O)NC[C@H](NC(=O)C3(C)CCCCC3)C(=O)O)CN2C(=O)CC(C)(C)C)c1"
meas_value = 4.30


Problem: Return reported pIC50; argument: COc1ccnc(NC[C@@H]2C[C@@H](OCC(=O)NC[C@H](NC(=O)c3c(C)cc(C)cc3C)C(=O)O)CN2C(=O)CC(C)(C)C)c1
Result: 4.89

---

Collected pIC50 values appear next to each entry.
molecular target: Integrin alpha-IIb/beta-3 (Homo sapiens, UniProt P05106+P08514); experiment: Inhibition of integrin alpha-2b-beta-3 receptor by ELISA
Sequence (P05106 27-788 limits assumed): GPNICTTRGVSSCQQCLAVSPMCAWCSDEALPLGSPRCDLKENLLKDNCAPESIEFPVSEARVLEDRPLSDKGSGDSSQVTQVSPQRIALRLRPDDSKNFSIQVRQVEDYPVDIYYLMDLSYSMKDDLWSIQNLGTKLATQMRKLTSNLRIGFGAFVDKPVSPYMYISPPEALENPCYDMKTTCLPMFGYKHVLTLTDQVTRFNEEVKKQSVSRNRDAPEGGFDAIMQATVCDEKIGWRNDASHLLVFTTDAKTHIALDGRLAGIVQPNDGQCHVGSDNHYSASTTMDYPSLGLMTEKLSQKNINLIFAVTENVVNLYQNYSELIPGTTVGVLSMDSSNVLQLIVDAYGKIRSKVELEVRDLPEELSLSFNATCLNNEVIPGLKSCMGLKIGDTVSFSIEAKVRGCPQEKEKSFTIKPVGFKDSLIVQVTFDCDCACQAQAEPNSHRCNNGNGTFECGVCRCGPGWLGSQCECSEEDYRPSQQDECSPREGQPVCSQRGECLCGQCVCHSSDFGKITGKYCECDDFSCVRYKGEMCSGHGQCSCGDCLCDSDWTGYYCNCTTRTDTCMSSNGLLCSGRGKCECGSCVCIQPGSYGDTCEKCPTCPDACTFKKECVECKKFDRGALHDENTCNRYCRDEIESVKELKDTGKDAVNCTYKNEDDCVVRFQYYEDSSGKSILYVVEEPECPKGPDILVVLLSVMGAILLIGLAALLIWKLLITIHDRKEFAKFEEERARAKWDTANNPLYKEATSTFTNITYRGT
Sequence (P08514 32-887 limits assumed): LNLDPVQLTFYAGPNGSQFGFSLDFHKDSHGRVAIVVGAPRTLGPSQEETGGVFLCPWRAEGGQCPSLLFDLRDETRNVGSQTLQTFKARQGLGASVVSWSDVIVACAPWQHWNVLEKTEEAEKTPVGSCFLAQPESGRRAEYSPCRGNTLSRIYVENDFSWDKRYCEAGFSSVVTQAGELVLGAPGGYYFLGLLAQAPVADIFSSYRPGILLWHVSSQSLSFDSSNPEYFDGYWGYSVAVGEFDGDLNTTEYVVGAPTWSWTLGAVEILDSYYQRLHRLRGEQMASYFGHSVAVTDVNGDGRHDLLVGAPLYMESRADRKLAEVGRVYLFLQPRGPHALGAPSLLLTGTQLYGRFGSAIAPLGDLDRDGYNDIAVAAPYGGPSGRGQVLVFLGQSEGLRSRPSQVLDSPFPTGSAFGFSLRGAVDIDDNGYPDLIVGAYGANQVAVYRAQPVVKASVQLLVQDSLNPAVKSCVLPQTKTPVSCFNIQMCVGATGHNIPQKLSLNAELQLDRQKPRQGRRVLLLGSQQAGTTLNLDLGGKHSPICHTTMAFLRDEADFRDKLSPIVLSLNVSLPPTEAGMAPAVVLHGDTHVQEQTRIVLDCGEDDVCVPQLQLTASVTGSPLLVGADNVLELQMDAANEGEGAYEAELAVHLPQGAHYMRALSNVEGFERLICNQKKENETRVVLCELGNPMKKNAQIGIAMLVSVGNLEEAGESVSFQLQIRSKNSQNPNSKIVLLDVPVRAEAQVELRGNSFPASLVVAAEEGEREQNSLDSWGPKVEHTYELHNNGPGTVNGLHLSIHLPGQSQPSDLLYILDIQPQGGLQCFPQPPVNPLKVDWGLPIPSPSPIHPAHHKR
Sequence (P08514 891-1039 limits assumed): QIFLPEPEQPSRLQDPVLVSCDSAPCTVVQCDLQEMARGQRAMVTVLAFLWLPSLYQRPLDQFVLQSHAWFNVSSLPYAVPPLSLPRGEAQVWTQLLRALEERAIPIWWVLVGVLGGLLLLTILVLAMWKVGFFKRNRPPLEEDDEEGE
pIC50: −log10 of the molar value.

// solved cases for pIC50 follow
[[record]]
input_smiles = "CC(C)(C)CC(=O)N1C[C@H](OCC(=O)NC[C@H](NC(=O)C2(C)CCCCC2)C(=O)O)C[C@H]1CNc1ccccn1"
meas_value = "< 4.30"

[[record]]
input_smiles = "COc1ccnc(NC[C@@H]2C[C@@H](OCC(=O)NC[C@H](NS(=O)(=O)c3c(C)cc(C)cc3C)C(=O)O)CN2C(=O)OCc2ccccc2)c1"
meas_value = 8.11

[[record]]
input_smiles = "Cc1cc(C)c(C(=O)N[C@@H](CNC(=O)CO[C@@H]2C[C@@H](CNc3ccccn3)N(C(=O)CC(C)(C)C)C2)C(=O)O)c(C)c1"
meas_value = "< 4.30"

[[record]]
input_smiles = "CC1(C(=O)N[C@@H](CNC(=O)CO[C@@H]2C[C@@H](CNc3ccccn3)N(C(=O)OCc3ccccc3)C2)C(=O)O)CCCCC1"
meas_value = "< 4.30"


Problem: Return reported pIC50; argument: COc1ccnc(NC[C@@H]2C[C@@H](OCC(=O)NC[C@H](NC(=O)c3c(C)cc(C)cc3C)C(=O)O)CN2C(=O)CC(C)(C)C)c1
Result: < 4.30

---

biological target: Integrin alpha-IIb/beta-3 (Homo sapiens, UniProt P05106+P08514); test: Inhibition of integrin alpha-2b-beta-3 receptor by ELISA
Collected IC50 values appear next to each entry.

// solved cases for IC50 follow
[[record]]
input_smiles = "Cc1cc(C)c(S(=O)(=O)N[C@@H](CNC(=O)CO[C@@H]2C[C@@H](CNc3ccccn3)N(C(=O)CC(C)(C)C)C2)C(=O)O)c(C)c1"
meas_value = "8 µM"

[[record]]
input_smiles = "COc1ccnc(NC[C@@H]2C[C@@H](OCC(=O)NC[C@H](NS(=O)(=O)c3c(C)cc(C)cc3C)C(=O)O)CN2C(=O)CC(C)(C)C)c1"
meas_value = "11 µM"

[[record]]
input_smiles = "COc1ccnc(NC[C@@H]2C[C@@H](OCC(=O)NC[C@H](NC(=O)C3(C)CCCCC3)C(=O)O)CN2C(=O)OCc2ccccc2)c1"
meas_value = "> 50 µM"

[[record]]
input_smiles = "COc1ccnc(NC[C@@H]2C[C@@H](OCC(=O)NC[C@H](NC(=O)c3c(C)cc(C)cc3C)C(=O)O)CN2C(=O)OCc2ccccc2)c1"
meas_value = "50 µM"

[[record]]
input_smiles = "COc1ccnc(NC[C@@H]2C[C@@H](OCC(=O)NC[C@H](NC(=O)C3(C)CCCCC3)C(=O)O)CN2C(=O)CC(C)(C)C)c1"
meas_value = "> 50 µM"

[[record]]
input_smiles = "O=C(CO[C@@H]1C[C@@H](CNc2ccccn2)N(C(=O)OCc2ccccc2)C1)NC[C@H](NS(=O)(=O)c1ccccc1)C(=O)O"
meas_value = "12 µM"


Consider the record given below.
Problem: Return reported IC50; argument: Cc1cc(C)c(C(=O)N[C@@H](CNC(=O)CO[C@@H]2C[C@@H](CNc3ccccn3)N(C(=O)OCc3ccccc3)C2)C(=O)O)c(C)c1
Result: > 50 µM

---

biological target: Integrin alpha-V/beta-5 (Homo sapiens, UniProt P06756+P18084); experiment: Inhibition of integrin alpha-V-beta-5 receptor by ELISA
Sequence (P06756 31-889 limits assumed): as the sequence (P06756 31-889 limits assumed, one chain of several) above
Sequence (P06756 891-1048 limits assumed): as the sequence (P06756 891-1048 limits assumed, one chain of several) above
Sequence (P18084 24-799 limits assumed): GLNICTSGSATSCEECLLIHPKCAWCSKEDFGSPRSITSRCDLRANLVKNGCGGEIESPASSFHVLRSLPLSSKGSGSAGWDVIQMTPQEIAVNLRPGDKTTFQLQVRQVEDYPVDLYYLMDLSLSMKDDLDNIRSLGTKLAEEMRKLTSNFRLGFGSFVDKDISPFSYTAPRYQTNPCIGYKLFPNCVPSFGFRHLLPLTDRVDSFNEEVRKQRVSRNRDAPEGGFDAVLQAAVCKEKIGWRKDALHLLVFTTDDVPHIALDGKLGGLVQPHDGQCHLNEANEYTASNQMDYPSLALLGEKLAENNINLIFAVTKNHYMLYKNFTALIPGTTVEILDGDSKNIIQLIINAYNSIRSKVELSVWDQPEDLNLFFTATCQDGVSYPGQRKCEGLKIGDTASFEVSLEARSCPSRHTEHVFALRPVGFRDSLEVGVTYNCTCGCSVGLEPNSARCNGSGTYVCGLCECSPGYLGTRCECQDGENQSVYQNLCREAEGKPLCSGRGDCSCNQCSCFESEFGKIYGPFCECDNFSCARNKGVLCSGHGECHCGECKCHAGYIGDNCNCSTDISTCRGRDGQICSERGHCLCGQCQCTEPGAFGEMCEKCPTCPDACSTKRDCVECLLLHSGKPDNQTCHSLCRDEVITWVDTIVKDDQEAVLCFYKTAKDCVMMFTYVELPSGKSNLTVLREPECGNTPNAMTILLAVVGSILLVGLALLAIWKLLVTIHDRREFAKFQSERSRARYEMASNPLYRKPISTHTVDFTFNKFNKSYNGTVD
Collected IC50 values appear next to each entry.
I only need the number, in µM, no unit after it.

// solved cases for IC50 follow
[[record]]
input_smiles = "Cc1cc(C)c(C(=O)N[C@@H](CNC(=O)CO[C@@H]2C[C@@H](CNc3ccccn3)N(C(=O)OCc3ccccc3)C2)C(=O)O)c(C)c1"
unit_spec = "µM"
meas_value = 30

[[record]]
input_smiles = "COc1ccnc(NC[C@@H]2C[C@@H](OCC(=O)NC[C@H](NS(=O)(=O)c3c(C)cc(C)cc3C)C(=O)O)CN2C(=O)CC(C)(C)C)c1"
unit_spec = "µM"
meas_value = 0.029


Problem: Return reported IC50; argument: CC(C)(C)CC(=O)N1C[C@H](OCC(=O)NC[C@H](NC(=O)C2(C)CCCCC2)C(=O)O)C[C@H]1CNc1ccccn1
Result: 2.3

Problem: Return reported IC50; argument: Cc1cc(C)c(S(=O)(=O)N[C@@H](CNC(=O)CO[C@@H]2C[C@@H](CNc3ccccn3)N(C(=O)CC(C)(C)C)C2)C(=O)O)c(C)c1
Result: 0.245
